# Experimental details: Biodistribution of compound No. 6 in mice (Table 6)
# Format: in vivo, Balb/c mice
# Recorded conditions: mouse, urine, 3 min, read-out: biodistribution urine
Measurement name: tissue uptake at 0.05 h (%ID/g)
Provide the reading as a plain figure in %ID/g.

**Q:** // returns reported tissue uptake at 0.05 h for input Cc1cc(C)c(O)c(NC(=O)CN(CCN(CC(=O)O)CC(=O)Nc2cc(C)cc(C)c2O)CC(=O)O)c1
**A:** 1.3

###

Task for the reader: assign each of the following molecules its reported biodistribution liver.
# Experimental details: Biodistribution of 67Ga complexes in mice
# Assay type: in vivo, balb/c mice
# Recorded conditions: 1 min
Hi! Could you send only the number? It should be in % ID, unit omitted.

**Q:** State the recorded biodistribution liver for this entry: CC(C)(C)c1ccc(O)c(NC(=O)CN(CCN(CC(=O)O)CC(=O)Nc2cc(C(C)(C)C)ccc2O)CC(=O)O)c1
**A:** 39.06

**Q:** Param item: Cc1cc(C)c(O)c(NC(=O)CN(CCN(CC(=O)O)CC(=O)Nc2cc(C)cc(C)c2O)CC(=O)O)c1
**A:** 26.45

**Q:** Check O=C(O)CN(CCN(CC(=O)O)CC(=O)Nc1ccc(Cl)cc1O)CC(=O)Nc1ccc(Cl)cc1O too.
**A:** 24.9

**Q:** Try the molecule O=C(O)CN(CCN(CC(=O)O)CC(=O)Nc1ccccc1O)CC(=O)Nc1ccccc1O
**A:** 15.45
